Can you tell me pIC50 for the items I'm about to list?
# Measurement target: recombinant human ACC1 (rhACC1) (Homo sapiens, UniProt Q13085, DEL44-44)
# Construct: infected with recombinant baculovirus containing full length human ACC1 cDNA; made in house; host or cells: SF9 insect cells (baculovirus)
# Assay method text: recombinant hACC1 Transcreener assay (ADP detection FP)
# Type: biochemical
# Conditions used: recombinant hACC1 Transcreener assay, 50 μM ATP, minimum of n=3; read-out: hACC1
// scale note: pIC50 = -log10(conc_M); give the bare number

Task: # input compound: CC(C)n1ncc2c1C(=O)CC1(CCN(C(=O)c3cc4c(-c5cccc(C(=O)O)c5)cccc4[nH]3)CC1)C2 [Example 15] ; wanted: its pIC50
Output: 8.21

Task: # pIC50 lookup, item CC(C)Nc1nc(-c2cccc(C(=O)O)c2)ccc1C(=O)N1CCC2(CC1)CC(=O)c1c(cnn1C(C)C)C2 [Example 23]
Output: 5.86

Task: If you can, please state the reported pIC50 value of CC(C)n1ncc2c1C(=O)CC1(CCN(C(=O)c3ccc(-c4ccc(C(=O)O)cc4)nc3NCC(F)(F)F)CC1)C2 [Example 42] .
Output: 7.40

Task: Which pIC50 is reported for this compound? CC(C)n1ncc2c1C(=O)CC1(CCN(C(=O)c3cc4c(-c5cccc(C(=O)O)c5)nccc4[nH]3)CC1)C2 [Example 35]
Output: 7.49

Task: Which pIC50 is reported for this compound? CC(C)(C)n1ncc2c1C(=O)CC1(CCN(C(=O)c3ccc(-c4cccc(-c5nnn[nH]5)c4)cc3)CC1)C2 [Example 49]
Output: 7.26

Task: I have this compound here, CC(C)n1ncc2c1C(=O)CC1(CCN(C(=O)c3cc4c(-c5ccc(C(=O)O)cc5)cncc4[nH]3)CC1)C2 [Example 38] , and I need its recorded pIC50.
Output: 7.47

Task: Endpoint output: pIC50 of COc1cc(C(=O)N2CCC3(CC2)CC(=O)c2c(cnn2C(C)(C)C)C3)cc(-c2ccc(C(=O)O)cc2)n1 [Example 10] . Value?
Output: 7.52

* * *

# Measurement target: recombinant human ACC2 (rhACC2) (Homo sapiens, UniProt O00763, V2141I)
# Construct: a full length Cytomax clone of ACC2 was purchased from Cambridge Bioscience Limited
# Sequence (O00763 whole entry V2141I): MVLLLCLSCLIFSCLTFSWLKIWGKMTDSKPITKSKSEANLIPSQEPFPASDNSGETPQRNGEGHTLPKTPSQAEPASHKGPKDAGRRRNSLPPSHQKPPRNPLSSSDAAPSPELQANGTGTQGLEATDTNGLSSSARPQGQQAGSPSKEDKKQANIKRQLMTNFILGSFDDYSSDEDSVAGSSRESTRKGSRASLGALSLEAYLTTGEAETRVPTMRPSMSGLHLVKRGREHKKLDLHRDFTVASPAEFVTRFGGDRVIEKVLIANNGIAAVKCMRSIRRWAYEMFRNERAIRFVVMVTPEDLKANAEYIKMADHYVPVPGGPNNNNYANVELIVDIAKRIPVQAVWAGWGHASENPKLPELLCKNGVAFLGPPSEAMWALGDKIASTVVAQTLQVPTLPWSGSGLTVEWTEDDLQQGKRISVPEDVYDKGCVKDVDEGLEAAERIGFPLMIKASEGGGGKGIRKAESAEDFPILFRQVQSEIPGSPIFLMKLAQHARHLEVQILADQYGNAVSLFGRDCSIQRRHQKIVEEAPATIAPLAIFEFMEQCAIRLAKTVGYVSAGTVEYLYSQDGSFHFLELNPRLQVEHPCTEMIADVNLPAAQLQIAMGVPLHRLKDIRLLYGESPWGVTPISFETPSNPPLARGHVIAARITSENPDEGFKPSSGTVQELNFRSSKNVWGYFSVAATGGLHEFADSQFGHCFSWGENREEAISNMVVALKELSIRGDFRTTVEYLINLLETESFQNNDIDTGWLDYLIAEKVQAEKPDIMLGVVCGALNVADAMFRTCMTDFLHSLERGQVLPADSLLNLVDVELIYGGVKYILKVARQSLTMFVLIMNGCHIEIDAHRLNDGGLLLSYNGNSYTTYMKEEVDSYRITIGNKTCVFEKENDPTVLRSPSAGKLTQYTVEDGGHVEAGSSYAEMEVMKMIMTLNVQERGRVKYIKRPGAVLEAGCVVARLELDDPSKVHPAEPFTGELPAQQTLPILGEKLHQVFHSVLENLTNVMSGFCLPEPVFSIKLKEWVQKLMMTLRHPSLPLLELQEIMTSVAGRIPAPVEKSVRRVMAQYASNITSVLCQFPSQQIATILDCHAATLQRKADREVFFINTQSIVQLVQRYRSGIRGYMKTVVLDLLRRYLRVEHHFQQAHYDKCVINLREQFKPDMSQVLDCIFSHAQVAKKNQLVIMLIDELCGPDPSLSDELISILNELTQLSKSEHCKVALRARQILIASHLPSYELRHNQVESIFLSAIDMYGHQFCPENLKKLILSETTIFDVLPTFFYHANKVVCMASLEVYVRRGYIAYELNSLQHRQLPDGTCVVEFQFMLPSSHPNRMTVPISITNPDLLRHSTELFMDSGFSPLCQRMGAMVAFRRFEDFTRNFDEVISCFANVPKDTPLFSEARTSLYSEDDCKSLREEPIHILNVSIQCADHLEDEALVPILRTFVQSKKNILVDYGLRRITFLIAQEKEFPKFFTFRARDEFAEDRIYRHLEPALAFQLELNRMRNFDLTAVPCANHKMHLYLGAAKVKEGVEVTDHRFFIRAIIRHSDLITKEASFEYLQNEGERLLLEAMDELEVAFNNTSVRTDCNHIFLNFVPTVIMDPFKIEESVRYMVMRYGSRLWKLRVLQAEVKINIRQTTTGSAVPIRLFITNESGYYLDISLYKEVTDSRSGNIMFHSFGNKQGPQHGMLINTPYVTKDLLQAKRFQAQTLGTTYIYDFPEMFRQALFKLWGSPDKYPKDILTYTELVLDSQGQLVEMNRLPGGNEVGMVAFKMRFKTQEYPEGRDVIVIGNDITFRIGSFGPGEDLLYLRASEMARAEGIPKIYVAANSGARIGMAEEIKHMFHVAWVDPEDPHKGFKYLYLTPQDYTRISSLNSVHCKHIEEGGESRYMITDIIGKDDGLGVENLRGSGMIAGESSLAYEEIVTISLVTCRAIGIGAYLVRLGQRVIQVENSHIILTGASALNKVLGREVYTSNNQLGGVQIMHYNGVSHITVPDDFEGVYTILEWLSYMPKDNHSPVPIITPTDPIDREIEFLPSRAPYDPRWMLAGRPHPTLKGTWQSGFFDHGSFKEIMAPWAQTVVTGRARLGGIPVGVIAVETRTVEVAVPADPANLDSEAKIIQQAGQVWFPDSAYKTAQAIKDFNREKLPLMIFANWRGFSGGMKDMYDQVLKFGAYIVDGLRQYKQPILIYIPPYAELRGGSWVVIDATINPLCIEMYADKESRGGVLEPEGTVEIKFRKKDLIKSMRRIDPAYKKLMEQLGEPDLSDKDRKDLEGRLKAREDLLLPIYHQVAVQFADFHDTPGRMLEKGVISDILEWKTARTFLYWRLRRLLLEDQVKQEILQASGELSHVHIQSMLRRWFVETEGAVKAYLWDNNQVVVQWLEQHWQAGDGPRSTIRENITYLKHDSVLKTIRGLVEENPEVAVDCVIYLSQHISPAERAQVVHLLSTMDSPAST
# Assay method text: recombinant hACC2 Transcreener assay (ADP detection FP)
# Conditions used: 50 μM ATP, minimum of n=3
Observed property: log10 IC50 (log10 of the value in µM)
Form field - Quantity: IC50; Unit: µM; Scale: log10

Task: Query (compound): `COc1cc(C(=O)N2CCC3(CC2)CC(=O)c2c(cnn2C(C)(C)C)C3)cc(-c2cccc(C(=O)O)c2)n1` ; field requested: log10 IC50
Output: -0.57

Task: Using the record for `CC(C)(C)n1ncc2c1C(=O)CC1(CCN(C(=O)c3cc(C(=O)O)cc(-c4ncco4)c3)CC1)C2` , report its log10 IC50.
Output: -0.29

Task: Which log10 IC50 value belongs to `CC(C)n1ncc2c1C(=O)CC1(CCN(C(=O)c3cc4c(-c5ccc(C(=O)O)cc5)cncc4[nH]3)CC1)C2` ?
Output: -1.70

Task: May I ask what log10 IC50 has been recorded for `COc1ccc(-c2cccc3[nH]c(C(=O)N4CCC5(CC4)CC(=O)c4c(cnn4C(C)C)C5)cc23)cc1CC(=O)O` ?
Output: -1.26

Task: # lookup: log10 IC50 of `CC(C)n1ncc2c1C(=O)CC1(CCN(C(=O)c3ccc(-c4cccc(-c5nnn[nH]5)c4)cc3)CC1)C2`
Output: -1.55

Task: So what does the record say about log10 IC50 for `CC(C)n1ncc2c1C(=O)CC1(CCN(C(=O)c3cc4c(-c5ccc(C(=O)O)cc5)ccnc4[nH]3)CC1)C2` ?
Output: -2.21

Task: // returns reported log10 IC50 for input `CC(C)n1ncc2c1C(=O)CC1(CCN(C(=O)c3cc(-c4ccc(C(=O)O)cc4)nc(N(C)C)c3)CC1)C2`
Output: -2.06

Task: Which log10 IC50 value belongs to `CC(C)(C)n1ncc2c1C(=O)CC1(CCN(C(=O)c3cc4c(-c5cccc(C(=O)O)c5)cccc4[nH]3)CC1)C2` ?
Output: -1.67

Task: Give its log10 IC50 value. Item: `CC(C)n1ncc2c1C(=O)CC1(CCN(C(=O)c3cc4c(-c5cccc(C(=O)O)c5)ccnc4[nH]3)CC1)C2`
Output: -2.27

Task: If you can, please state the reported log10 IC50 value of `CNc1nc(-c2cccc(C(=O)O)c2)ccc1C(=O)N1CCC2(CC1)CC(=O)c1c(cnn1C(C)(C)C)C2` .
Output: -1.28

Task: Name the reported log10 IC50 value associated with the compound `CNc1ncc(-c2cccc(C(=O)O)c2)cc1C(=O)N1CCC2(CC1)CC(=O)c1c(cnn1C(C)C)C2`
Output: -0.88

Task: Consider the compound `CC(C)n1ncc2c1C(=O)CC1(CCN(C(=O)c3cc4c(-c5ccc(C(=O)O)cc5)cccc4[nH]3)CC1)C2` and give its measured log10 IC50.
Output: -1.94

Task: Fill blank: measured log10 IC50 of the compound `CC(C)n1ncc2c1C(=O)CC1(CCN(C(=O)c3nc4cc(-c5cccc(C(=O)O)c5)ccc4[nH]3)CC1)C2` is ____.
Output: -1.59

Task: For the compound shown here, `CNc1ncc(-c2ccc(C(=O)O)cc2)cc1C(=O)N1CCC2(CC1)CC(=O)c1c(cnn1C(C)C)C2` , give the reported log10 IC50.
Output: -1.44

Task: State the recorded log10 IC50 for this entry: `CNc1nc(-c2ccc(C(=O)O)cc2)ccc1C(=O)N1CCC2(CC1)CC(=O)c1c(cnn1C(C)C)C2`
Output: -0.76

Task: Entry `CC(C)(C)n1ncc2c1C(=O)CC1(CCN(C(=O)c3cc4c(-c5ccc(C(=O)O)cc5)cccc4[nH]3)CC1)C2` : reported log10 IC50 = ?
Output: -1.84

Task: Recorded log10 IC50 of `CC(C)n1ncc2c1C(=O)CC1(CCN(C(=O)c3cc(-c4ccc(C(=O)O)cc4)[nH]c(=O)c3)CC1)C2` , please.
Output: 0.06

Task: Given the entry `CC(C)Nc1nc(-c2ccc(C(=O)O)cc2)ccc1C(=O)N1CCC2(CC1)CC(=O)c1c(cnn1C(C)C)C2` , report its measured log10 IC50.
Output: -0.69

Task: So what's the measured log10 IC50 for this one? `CC(C)n1ncc2c1C(=O)CC1(CCN(C(=O)c3cc(-c4cccc(C(=O)O)c4)c4cc[nH]c4c3)CC1)C2`
Output: -1.53
